Data credit: ChEMBL document CHEMBL3351514

Test: Neurotoxicity in po dosed albino Wistar rat at 1 hr by rotorod test
Type: toxicity, organism-based
Settings: in vivo

{"smiles.structure": "O=C1NC(=O)C(c2ccccc2)(c2ccccc2)N1", "TD50 at 1 h": "> 100 mg/kg"}

---

Assay: Neurotoxicity in ip dosed albino Wistar rat at 0.5 hr by rotorod test
Format: toxicity, organism-based
Conditions: in vivo
Recorded MTD at 0.5 h, one value per entry.

{"compound": "COc1ccc(N2C(=O)CC(c3noc4ccccc34)C2=O)cc1 (stereo unspecified)", "MTD at 0.5 h": "100 mg/kg"}
{"compound": "O=C1CC(c2noc3ccccc23)C(=O)N1c1ccc(F)cc1 (stereo unspecified)", "MTD at 0.5 h": "300 mg/kg"}
{"compound": "O=C1CC(c2noc3ccccc23)C(=O)N1C1CCCCC1 (stereo unspecified)", "MTD at 0.5 h": "300 mg/kg"}
{"compound": "O=C1CC(c2noc3ccccc23)C(=O)N1c1ccccc1 (stereo unspecified)", "MTD at 0.5 h": "100 mg/kg"}
{"compound": "CCCCN1C(=O)CC(c2noc3ccccc23)C1=O (stereo unspecified)", "MTD at 0.5 h": "100 mg/kg"}
{"compound": "O=C1NC(=O)C(c2ccccc2)(c2ccccc2)N1 [PHENYTOIN]", "MTD at 0.5 h": "100 mg/kg"}
